target: Protein cereblon/Bromodomain-containing protein 2 (Homo sapiens) (UniProt P25440+Q96SW2); experiment: PROTAC activity at CRBN/BRD2 in human MM1.S cells assessed as induction of protein degradation at 2 to 10 nM measured after 24 hrs by Western blot analysis; format: cell-based; details: dose 2-10 nM
Sequence (P25440 whole entry, looked up): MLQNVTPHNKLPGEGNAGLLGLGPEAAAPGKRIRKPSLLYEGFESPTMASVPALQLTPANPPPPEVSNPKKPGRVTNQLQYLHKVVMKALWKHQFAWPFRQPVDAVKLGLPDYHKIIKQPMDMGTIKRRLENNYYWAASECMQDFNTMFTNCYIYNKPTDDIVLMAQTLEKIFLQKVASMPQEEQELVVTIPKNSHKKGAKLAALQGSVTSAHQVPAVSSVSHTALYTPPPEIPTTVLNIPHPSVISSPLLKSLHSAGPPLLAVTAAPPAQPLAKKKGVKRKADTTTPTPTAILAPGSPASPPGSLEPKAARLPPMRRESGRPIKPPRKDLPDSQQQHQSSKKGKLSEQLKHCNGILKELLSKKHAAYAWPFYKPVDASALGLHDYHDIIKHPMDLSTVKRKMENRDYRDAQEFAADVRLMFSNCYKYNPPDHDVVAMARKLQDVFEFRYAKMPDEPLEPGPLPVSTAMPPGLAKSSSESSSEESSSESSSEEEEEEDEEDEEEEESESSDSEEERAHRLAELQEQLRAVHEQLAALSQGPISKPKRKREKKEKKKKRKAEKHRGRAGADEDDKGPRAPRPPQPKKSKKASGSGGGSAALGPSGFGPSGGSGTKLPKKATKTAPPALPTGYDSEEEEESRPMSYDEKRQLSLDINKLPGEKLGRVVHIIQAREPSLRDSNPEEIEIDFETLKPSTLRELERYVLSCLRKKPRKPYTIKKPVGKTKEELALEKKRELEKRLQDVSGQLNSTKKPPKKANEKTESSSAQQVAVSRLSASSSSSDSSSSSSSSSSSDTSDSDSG
Sequence (Q96SW2 whole entry, looked up): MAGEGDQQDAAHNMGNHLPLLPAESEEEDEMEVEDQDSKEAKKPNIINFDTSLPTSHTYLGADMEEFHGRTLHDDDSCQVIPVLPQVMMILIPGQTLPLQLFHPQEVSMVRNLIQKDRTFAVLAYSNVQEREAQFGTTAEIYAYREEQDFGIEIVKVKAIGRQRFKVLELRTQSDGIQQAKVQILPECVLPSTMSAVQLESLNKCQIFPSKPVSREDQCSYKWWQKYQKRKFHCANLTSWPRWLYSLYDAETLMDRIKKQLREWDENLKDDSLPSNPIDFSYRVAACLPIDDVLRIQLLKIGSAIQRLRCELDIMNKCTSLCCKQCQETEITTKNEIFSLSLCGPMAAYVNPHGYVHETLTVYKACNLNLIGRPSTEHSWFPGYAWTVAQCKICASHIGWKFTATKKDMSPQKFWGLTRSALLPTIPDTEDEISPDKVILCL
Activity calls are given as the source filed them. The rule behind the calls is not given here.
quantity: Activity

Cc1nnc2n1-c1ccc(-c3ccc(CNCCCc4cccc5c4CN(C4CCC(=O)NC4=O)C5=O)cc3)cc1C(Nc1ccc(Cl)cc1)CC2 (centres undefined) | inactive
Cc1nnc2n1-c1ccc(-c3cnn(CC(=O)NCCCC#Cc4cccc5c4CN(C4CCC(=O)NC4=O)C5=O)c3)cc1C(Nc1ccc(Cl)cc1)CC2 (centres undefined) | inactive
Cc1nnc2n1-c1ccc(-c3cnn(CC(=O)NCCCCCC#Cc4cccc5c4CN(C4CCC(=O)NC4=O)C5=O)c3)cc1C(Nc1ccc(Cl)cc1)CC2 (centres undefined) | inactive
Cc1nnc2n1-c1ccc(-c3cnn(CC(=O)NCCCCC#Cc4cccc5c4CN(C4CCC(=O)NC4=O)C5=O)c3)cc1C(Nc1ccc(Cl)cc1)CC2 (centres undefined) | inactive

###

test system: HeLa; assay: Antiproliferative activity against human HeLa cells assessed as cell growth inhibition measured after 4 days by CCK-8 assay; assay type: functional, cell-based; conditions: 96 h
quantity: pIC50
// scale note: pIC50 = -log10(conc_M); give the bare number

Recorded pIC50, per entry:
Cc1sc2c(c1C)C(c1ccc(Cl)cc1)=N[C@@H](CC(=O)NCCCCNC(=O)COc1cccc3c1C(=O)N(C1CCC(=O)NC1=O)C3=O)c1nnc(C)n1-2 (stereo partly drawn) | 4.79
Cc1nnc2n1-c1ccc(-c3ccc(CNCCCCc4cccc5c4CN(C4CCC(=O)N(C)C4=O)C5=O)cc3)cc1C(Nc1ccc(Cl)cc1)CC2 (stereo not drawn) | 5.49

Alright, here's another compound for you.
In: Name the reported pIC50 value associated with the compound Cc1nnc2n1-c1ccc(-c3ccc(CNCCCCc4cccc5c4CN(C4CCC(=O)NC4=O)C5=O)cc3)cc1C(Nc1ccc(Cl)cc1)CC2 (stereo not drawn)
Out: 5.16

###

assay: Cmax in C57 mouse at 3 mg/kg, iv measured upto 24 hrs by LC-MS/MS analysis; type: ADME, organism-based; design: dose 3 mg/kg, time < 24 hrs, route iv; settings: in vivo
quantity: Cmax (ng/mL)
Unit ng/mL implied. Number only.

In: What Cmax value was documented for this compound, Cc1nnc2n1-c1ccc(-c3ccc(CN(C)CCCCc4cccc5c4CN(C4CCC(=O)NC4=O)C5=O)cc3)cc1C(Nc1ccc(Cl)cc1)CC2 (stereo unspecified) ?
Out: 7410

###

target: Bromodomain-containing protein 3 (Homo sapiens, UniProt Q15059); experiment: Binding affinity to recombinant human BRD3 BD2 (306 to 417 residues) assessed as inhibition constant by fluorescence polarization binding assay
Sequence (Q15059 whole entry, the tested form may be a part): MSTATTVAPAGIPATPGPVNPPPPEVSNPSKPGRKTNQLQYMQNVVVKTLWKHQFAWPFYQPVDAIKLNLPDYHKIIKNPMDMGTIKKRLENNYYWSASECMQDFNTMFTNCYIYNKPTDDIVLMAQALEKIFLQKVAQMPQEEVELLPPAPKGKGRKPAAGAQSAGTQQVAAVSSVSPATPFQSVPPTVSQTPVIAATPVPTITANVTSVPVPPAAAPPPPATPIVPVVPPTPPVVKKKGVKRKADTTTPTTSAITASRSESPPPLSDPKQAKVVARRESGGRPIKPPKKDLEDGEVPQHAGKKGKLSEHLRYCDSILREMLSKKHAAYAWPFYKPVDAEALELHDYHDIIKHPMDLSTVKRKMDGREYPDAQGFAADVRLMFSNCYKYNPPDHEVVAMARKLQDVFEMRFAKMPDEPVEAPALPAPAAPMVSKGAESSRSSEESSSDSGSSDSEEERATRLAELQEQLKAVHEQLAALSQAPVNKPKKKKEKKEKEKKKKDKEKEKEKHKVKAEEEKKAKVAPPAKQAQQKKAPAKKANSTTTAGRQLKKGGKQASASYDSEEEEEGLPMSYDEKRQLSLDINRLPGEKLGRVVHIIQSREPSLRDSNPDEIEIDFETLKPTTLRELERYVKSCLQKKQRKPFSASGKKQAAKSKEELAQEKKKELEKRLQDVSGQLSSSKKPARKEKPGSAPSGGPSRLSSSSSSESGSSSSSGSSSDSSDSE
Values of Ki strictly less than 5 nM map to MET, and values of at least 5 nM map to NOT MET.

See these solved cases before continuing.
Cc1nnc2n1-c1ccc(-c3ccc(CNCCCCCCCc4cccc5c4CN(C4CCC(=O)NC4=O)C5=O)cc3)cc1C(Nc1ccc(Cl)cc1)CC2 (configuration not stated) | MET
Cc1nnc2n1-c1ccc(-c3cnn(CC(=O)NCCCCC#Cc4cccc5c4CN(C4CCC(=O)NC4=O)C5=O)c3)cc1C(Nc1ccc(Cl)cc1)CC2 (configuration not stated) | NOT MET
Cc1nnc2n1-c1ccc(-c3ccc(CNCCC#Cc4cccc5c4CN(C4CCC(=O)NC4=O)C5=O)cc3)cc1C(Nc1ccc(Cl)cc1)CC2 (configuration not stated) | NOT MET
Cc1nnc2n1-c1ccc(-c3ccc(CNCC#Cc4cccc5c4CN(C4CCC(=O)NC4=O)C5=O)cc3)cc1C(Nc1ccc(Cl)cc1)CC2 (configuration not stated) | MET
Cc1sc2c(c1C)C(c1ccc(Cl)cc1)=N[C@@H](CC(=O)NCCCCNC(=O)COc1cccc3c1C(=O)N(C1CCC(=O)NC1=O)C3=O)c1nnc(C)n1-2 (some centres not stated) | NOT MET
Cc1nnc2n1-c1ccc(-c3ccc(CNCCCCCc4cccc5c4CN(C4CCC(=O)NC4=O)C5=O)cc3)cc1C(Nc1ccc(Cl)cc1)CC2 (configuration not stated) | NOT MET

In: Strictly below 5 nM in Ki? Cc1nnc2n1-c1ccc(-c3ccc(CNCCCCCC#Cc4cccc5c4CN(C4CCC(=O)NC4=O)C5=O)cc3)cc1C(Nc1ccc(Cl)cc1)CC2 (configuration not stated)
Out: NOT MET

###

Readings of IC50 for the listed compounds
tested on: MV4-11; assay: Antiproliferative activity against human MV4-11 cells assessed as cell growth inhibition measured after 3 days by CellTitre-Glo assay; assay type: functional, cell-based; settings: MV4-11, 72 h
Expressed in nM, but write only the number.

Cc1nnc2n1-c1ccc(-c3cnn(CC(=O)NCCCCC#Cc4cccc5c4CN(C4CCC(=O)NC4=O)C5=O)c3)cc1C(Nc1ccc(Cl)cc1)CC2 (stereo not drawn) | 536
Cc1nnc2n1-c1ccc(-c3ccc(CNCCCc4cccc5c4CN(C4CCC(=O)NC4=O)C5=O)cc3)cc1C(Nc1ccc(Cl)cc1)CC2 (stereo not drawn) | 1010

In the following, a different compound is considered.
In: Provide value of IC50 for this record tested with MV4-11: Cc1nnc2n1-c1ccc(-c3ccc(CNCCCCC#Cc4cccc5c4CN(C4CCC(=O)NC4=O)C5=O)cc3)cc1C(Nc1ccc(Cl)cc1)CC2 (stereo not drawn)
Out: 71.4
